Tgt: r5-HT7 receptor (Rattus norvegicus (Rat), UniProt P32305)
Sequence (P32305 1-435): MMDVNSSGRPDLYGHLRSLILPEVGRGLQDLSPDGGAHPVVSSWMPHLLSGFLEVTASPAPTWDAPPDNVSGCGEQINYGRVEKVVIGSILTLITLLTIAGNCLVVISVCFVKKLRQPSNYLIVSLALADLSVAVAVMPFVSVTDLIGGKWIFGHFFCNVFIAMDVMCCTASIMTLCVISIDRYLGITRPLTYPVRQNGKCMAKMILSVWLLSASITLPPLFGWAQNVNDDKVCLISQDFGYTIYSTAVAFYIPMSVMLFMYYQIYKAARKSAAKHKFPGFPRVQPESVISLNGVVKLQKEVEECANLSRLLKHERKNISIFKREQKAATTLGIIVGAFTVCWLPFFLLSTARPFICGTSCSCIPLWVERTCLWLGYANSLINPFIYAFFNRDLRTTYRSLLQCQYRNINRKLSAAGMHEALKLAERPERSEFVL
Assay Procedure: HitHunter cAMP assay, agonistic testing
Assay Setup: HEK-293 cells stably transfected with r5-HT7 receptor
Experimental: Receptor binding was performed using membrane fractions prepared from the HEK-293 cell line recombinantly expressing rat 5-HT7 receptors (NCBI accession NM_022938). Compound affinity for the rat 5-HT7 receptor subtype was evaluated by competitive radioligand binding assays using 5-carboxamido[^3H]tryptamine ([^3H]5-CT) (Amersham Biosciences, cat. 90000403) detection. HitHunter™ cAMP assays are in-vitro based competitive immunoassays. […]
pEC50: −log10 of the molar value. Where a name gives a salt, the structure may show the parent alone.
Measure Name: pEC50

>  <Molecule>
COc1ccc(-c2ccccc2C(F)(F)F)cc1OC1CNC1 [Example 1]

>  <Tgt>
r5-HT7 receptor (Rattus norvegicus (Rat), UniProt P32305)

>  <pEC50>
6.70

$$$$
>  <Molecule>
COc1ccc(-c2ccccc2C)cc1OC1CNC1 [Example 8, trifluoroacetate]

>  <Tgt>
r5-HT7 receptor (Rattus norvegicus (Rat), UniProt P32305)

>  <pEC50>
6.10

$$$$
>  <Molecule>
COc1ccc(-c2ccccc2Cl)cc1OC1CNC1 [Example 17]

>  <Tgt>
r5-HT7 receptor (Rattus norvegicus (Rat), UniProt P32305)

>  <pEC50>
6.10

$$$$

1 = COc1ccc(-c2cccc(C)c2C)cc1OC1CNC1 [Example 4]
2 = COc1ccc(-c2cccc(F)c2C)cc1OC1CNC1 [Example 5]
*Q* Among 1 and 2 , which shows a numerically higher pEC50 result? Choose, then provide that item's label.
*A* 1
(1: 6.20, 2: 5.80)

###

Tgt: UniProt P32305
Assay Procedure: r5-HT7 competitive radioligand binding assay ([3H]5-CT)
Assay Setup: membrane fractions of HEK-293 cells recombinantly expressing rat 5-HT7
pKi: −log10 of the molar value. Where a name gives a salt, the structure may show the parent alone.
Measure Name: pKi

Reference set, count: 6
>  <Molecule>
COc1ccc(-c2ccccc2)cc1OC1CNC1

>  <pKi>
6.92

$$$$
>  <Molecule>
Cc1ccc(-c2ccccc2C2CCNC2)cc1C (racemic)

>  <pKi>
7.25

$$$$
>  <Molecule>
COc1ccc(-c2cccc(C)c2C)cc1OC1CNC1

>  <pKi>
7.96

$$$$
>  <Molecule>
Clc1ccccc1-c1cccc(OC2CNC2)c1

>  <pKi>
7.46

$$$$
>  <Molecule>
Cc1ccccc1-c1ccccc1C1CCN(C)C1 (racemic)

>  <pKi>
6.48

$$$$
>  <Molecule>
FC(F)(F)c1ccccc1-c1ccc(Cl)c(OC2CNC2)c1 [Example 25, trifluoroacetate]

>  <pKi>
7.98

$$$$

1 = Cc1ccc(-c2ccccc2C2CCNC2)cc1 (racemic)
2 = COc1ccc(C)cc1-c1ccccc1C1CCNC1 (racemic)
*Q* I'm curious whether 1 or 2 has the smaller pKi number. Which is it? Provide the label of your selected option as the answer.
*A* 2

I = COc1ccc(-c2ccc(C)c(C)c2)cc1OC1CNC1
II = COc1ccc(-c2ccccc2C(F)(F)F)cc1OC1CNC1
III = Cc1cccc(-c2cccc(OC3CNC3)c2)c1
IV = COc1ccc(-c2cc(C)ccc2C)cc1OC1CNC1
V = COc1ccc(-c2ccccc2OC(F)(F)F)cc1C1CCNC1 (racemic)
*Q* Would you mind ranking these molecules by ascending pKi? Please express your ranking as an ordered list of the labels.
*A* III, I, IV, V, II
(III: 6.12, I: 6.60, IV: 6.94, V: 7.70, II: 8.42)
